molecular target: ZFP SBS#1234 (synthetic); assay: EMSA; details: tags: MBP fusion
Sequence (chain, as listed by the source): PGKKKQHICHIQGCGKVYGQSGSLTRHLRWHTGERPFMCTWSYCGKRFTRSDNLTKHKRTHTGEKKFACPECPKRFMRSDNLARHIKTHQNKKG
measure-name: Kd (nM)

>  <binder>
GAGTAGGCA (dsDNA) DNA 1: GAGTAGGCA DNA 2: TGCCTACTC

>  <measure-name>
Kd

>  <reported-measurement>
0.101

$$$$
